Test system: MDA-MB-231 breast
Assay: NCI tumour cell line growth inhibition, 48 h
measured-property: TGI (µM)
Answer in µM, number only, no unit symbol.

// Input: `COc1cc2c3c(n(C)c(=O)c2cc1OC)-c1cc2c(cc1/C3=C/[C@H](N)CCCCN)OCO2` . Output its TGI only.
6.22

Dear colleague, please send me the reported TGI for `COc1cc(-c2nc3nc(N4CCN(C)CC4)ccc3[nH]2)c(OC)c2[nH]c(COC(C)=O)nc12` when you can.
63.6

For the molecule `CC(=O)NC1=C(C)C(=O)c2c(nc3n2CC[C@H]3OC(C)=O)C1=O` , report TGI.
2.71

###

Give TGI for every item shown.
Tested on: HOP-62 NSCLC
Experiment: NCI tumour cell line growth inhibition, 48 h
Field format: number, assumed µM, no unit text.

State, in one line, measured TGI of `Oc1cc(Cl)ccc1Cc1ccc(Cl)cc1O`
31.7

Name the recorded TGI of the item `NC(N)=N/N=C/c1c(-c2ccc(Cl)c([N+](=O)[O-])c2)nc2ccccn12` in your answer.
2.9

Write down TGI measured for item `COc1ccc2c(c1)CC[C@@H]1[C@@H]2CC[C@]2(C)C(=O)/C(=C/c3cc(OC)c(OC)c(OC)c3)C[C@@H]12`
30.7

Identify measured TGI corresponding to `CC(=O)NC1=C(C)C(=O)c2c(nc3n2CC[C@H]3OC(C)=O)C1=O`
28.3

Retrieve TGI measured for `Cc1ccc(C[P+](c2ccccc2)(c2ccccc2)c2ccccc2)cc1` and print it.
6.28

###

Tested on: SK-MEL-28 melanoma
Assay: NCI tumour cell line growth inhibition, 48 h
measured-property: TGI (µM)
Write down the numeric answer in µM and omit the unit.

Read the entry `CCOC(=O)C1=C(c2ccccc2)N(c2ccc(OC)cc2)[C@]2(C#N)C(O)=C(Cl)C(Cl)=C(O)[C@]12C#N` and write its reported TGI.
41.9

Complete the entry with TGI for `CCC[CH2][Sn]1([CH2]CCC)[O]C(=O)CN=Cc2ccccc2[O]1`
1.1

Report measured TGI; entry is `C=C(C)[C@@H]1CC[C@]2(C(=O)NCCNCCNCCN)CC[C@]3(C)[C@H](CC[C@@H]4[C@@]5(C)CCC(=O)C(C)(C)[C@@H]5CC[C@]43C)[C@@H]12`
17

Dear colleague, please send me the reported TGI for CCCCCCCCC/C=C1\CC(CO)(COC(=O)c2ccccc2)OC1=O (stereo not given) when you can.
31.8

Supply measured TGI of `NCCCCNC1(c2cc3ccccc3s2)CCCCC1` in your reply.
3.81

Tell me its TGI given `COc1cc2c(cc1OC)-c1c(c3ccc([N+](=O)[O-])cc3c(=O)n1CCCN)C2=O` as the entry.
15.3

Return value of TGI for input `CS(=O)(=O)O.[Ag]` , no commentary.
35.2

In one line, give reported TGI of the entry `COc1cc(CNc2nc3cc(C(F)(F)F)ccc3nc2C)cc(OC)c1OC` .
65

Report TGI, nothing else, for this compound: COc1ccc2c(c1)[C@@]1(C)CCC3c4ccc(O)cc4CCC3C1C2 (stereo not given in full)
30.3

Report TGI for CNCCOC(=O)/C=C1/CCC2C(C(O)CC3C(C)(C(=O)OC)CCCC23C)C1C (stereo not given)
0.0758

###

Would you kindly list TGI for each of these molecules?
System: MALME-3M melanoma
Test: NCI tumour cell line growth inhibition, 48 h

Input `COC(=O)[C@@H]1CCCN1C(=O)[C@H]1CCCN1C(=O)[C@@H](Cc1c[nH]c2ccccc12)NC(=S)Nc1cc(C(F)(F)F)cc(C(F)(F)F)c1` , output reported TGI.
7.24 µM

Entry `NC(=O)c1c2c(cc3c(=O)c4ccccc4[nH]c13)CCCC2` needs its TGI filled in; supply it.
> 100 µM

Could you please provide reported TGI for `COc1ccc(/C=C2\CN(C)Cc3c2[nH]c(=O)c(C#N)c3-c2ccc(OC)cc2)cc1` ? Thanks!
> 100 µM

Kindly indicate its recorded TGI. Item: CC1(C)Cc2c(Br)c(Br)c(Br)c(OCC(O)CN3CCOCC3)c2O1 (centres undefined)
32.7 µM

Consider the molecule `COc1ccc2c(c1)-c1oc3ccccc3c(=O)c1CO2` . State its measured TGI.
> 100 µM

// Input: `CN(C)S(=O)(=O)c1ccc(Nc2ccc(O)c3c2C(=O)c2c([N+](=O)[O-])ccc(O)c2C3=O)cc1` . Output its TGI only.
> 100 µM

Please give measured TGI of the following entry: `O=C(c1ccccc1)N1C(=S)N(c2ccc([N+](=O)[O-])cc2)C(=Nc2ccccc2)C1=Nc1ccccc1`
> 100 µM

Return value of TGI for input COc1cc(C2S/C(=C/c3ccccc3)C(=O)N2c2cccc([N+](=O)[O-])c2)cc(OC)c1OC (centres undefined) , no commentary.
> 100 µM

Give TGI for `CC(C)(NC1=NCCO1)c1ccccc1`
> 100 µM

###

Test system: BT-549 breast
Assay: NCI tumour cell line growth inhibition, 48 h; in the data active = GI50 below about 0.43 µM; inactive = the rest
The reply should name one outcome from active, inactive

For this compound, state the assay outcome: `O=[N+]([O-])/C=C/c1ccc([N+](=O)[O-])cc1`
inactive

Field: outcome | Entry: `CCN1CCC(CC(=O)Nc2n[nH]c3nc(-c4cccs4)c(Br)cc23)CC1`
inactive

Status in this test for CC(=O)OC12CC(C)C3(O)C4C=C(C)C(=O)[C@@]4(O)CC(CO)=C[C@H]3C1C2(C)C (stereo not given in full) ?
inactive

Outcome logged for `NC(N)=N/N=C/c1c(-c2ccc(Cl)c([N+](=O)[O-])c2)nc2ccccn12` in this assay:
active

Recorded test outcome, item `N/C(=N\c1nc2ccccc2s1)NC(=O)Nc1cccc2ccccc12`
inactive

###

Test system: EKVX NSCLC
Assay: NCI tumour cell line growth inhibition, 48 h
I'd appreciate it if you could supply TGI values for the items below.
The figure you give is taken to be in µM; do not add the unit.

Give TGI for CC(C)C(C/C=C1\CC(CO)(COC(=O)CC(C(C)C)C(C)C)OC1=O)C(C)C (stereo not given)
23.5

Indicate its recorded TGI; the compound in question is `O=C(/C=C\c1ccc2ccccc2n1)c1cc(Cl)ccc1O`
87.5

###

Test system: SK-MEL-28 melanoma
Test: NCI tumour cell line growth inhibition, 48 h
measured-property: TGI (µM)
Hi! Could you send only the number? It should be in µM, unit omitted.

Query TGI for `Cc1ccc(/C(=C/C=C(C#N)C#N)Sc2ccccn2)cc1`
4.51

Kindly indicate its recorded TGI. Item: `CN1C(=O)C(c2c[nH]c3ccccc23)=C(c2c(-c3c[nH]c4ccccc34)[nH]c3ccccc23)C1=O`
31.4

Return the recorded TGI value; entry: `O=[N+]([O-])/C=C/c1ccc([N+](=O)[O-])cc1`
7.57

Respond only with TGI recorded for `COc1cc2c3c(n(CCCNCCNCCCN)c(=O)c2cc1OC)-c1cc2c(cc1C3=O)OCO2`
20.1

Give me measured TGI, please, for this compound: `Nc1ccc(-n2c(=O)oc3ccc(Cl)cc3c2=O)c(Cl)c1`
0.73

For `O=[N+]([O-])c1cccc(-c2cc(-c3cc(Br)ccc3O)[nH]n2)c1` , write its TGI.
10.5

Identify TGI associated with the compound `COc1cc2c(cc1OCCCN1CCN(c3cc(=O)oc4c(C)c(OC)ccc34)CC1)N=C[C@@H]1CCCN1C2=O`
8.45

###

System: SF-295 CNS
Assay: NCI tumour cell line growth inhibition, 48 h
For each of the molecules below, state its TGI.

State its TGI: `O=C1C[C@H](c2ccccc2)C2(C(=O)c3ccccc3C2=O)[C@H](c2ccccc2)C1`
> 100 µM

# return recorded TGI for entry `COc1cc(-c2nc3nc(N4CCN(C)CC4)ccc3[nH]2)c(OC)c2[nH]c(COC(C)=O)nc12`
> 100 µM

Answer with the recorded TGI for the molecule listed here: `COC(=O)[C@@H]1CCCN1C(=O)[C@H]1CCCN1C(=O)[C@@H](Cc1c[nH]c2ccccc12)NC(=S)Nc1cc(C(F)(F)F)cc(C(F)(F)F)c1`
5.71 µM

# return recorded TGI for input N#C[C@H]1Nc2ccccc2[C@@H](O)C1O (some centres undefined)
> 100 µM

###

Test system: RPMI-8226 leukemia
Assay: NCI tumour cell line growth inhibition, 48 h
Answer each item with its documented TGI.

Tell me measured TGI for `CNC(=O)OCc1[nH]ccc2c(C)c3nc4ccc(OC)cc4c3cc12` please.
10.6 µM

Using known records, supply TGI for `c1ccc(Nc2nnc(-c3nsc4ccccc34)o2)cc1`
> 100 µM

Indicate its recorded TGI; the molecule in question is O=C1OCC2=C1C(c1cccc(C(F)(F)F)c1)c1cc3c(cc1N2CCO)CCC3 (stereo not given)
12.8 µM

Note TGI for the molecule shown: `CCOC(=O)C1=C(c2ccccc2)N(c2ccc(OC)cc2)[C@]2(C#N)C(O)=C(Cl)C(Cl)=C(O)[C@]12C#N`
18 µM

Respond only with TGI recorded for COC(=O)[C@]12CC=C3O[C@@H]4OC5(CCCCC5)O[C@@H]4[C@H]3C1C(=O)C=CC2=O (stereo not given in full)
21.6 µM

Provide one value: measured TGI of O=C(O)c1ccc(C2C3C=CC(C3)C2[N+](=O)[O-])cc1 (stereo not given)
> 100 µM

Recall and state the measured TGI for C/C=C\C(CC(=O)NCCC1CN(C(=O)c2ccccc2)c2ccccc21)CC(=O)OC (stereo not given) .
> 100 µM

For the molecule Cn1c(=O)oc2cc(C3CCC(=O)N3Cc3ccc(Cl)cc3)ccc21 (stereo not given) , give its measured TGI value.
> 100 µM

Fill in TGI for record `CO/N=C(/COc1c(-c2ccccc2)oc2ccccc2c1=O)c1ccc(F)cc1`
> 100 µM

Please look at this molecule and report its TGI: `COC(=O)[C@@H]1CCCN1C(=O)[C@H]1CCCN1C(=O)[C@@H](Cc1c[nH]c2ccccc12)NC(=S)Nc1cc(C(F)(F)F)cc(C(F)(F)F)c1`
7.93 µM

Identify measured TGI associated with CN(C)CC(NC(NCS)C(=O)NCCNc1ccc(NCCNC(=O)C(NCS)NC(CN(C)C)OCCl)c2c1C(=O)c1c(O)ccc(O)c1C2=O)OCCl (stereo not given)
0.03 µM

Return TGI for the following molecule: `CC(=O)NC1=C(C)C(=O)c2c(nc3n2CC[C@H]3OC(C)=O)C1=O`
7.4 µM

Determine its reported TGI: COc1ccc(C(=O)CC(c2ccc(OC)c(OC)c2)c2c(O)c3ccccc3oc2=O)cc1OC (stereo not given)
> 100 µM

Give TGI for the following molecule: `OCc1ccc(Oc2c3ccccc3nc3occc23)cc1`
65.5 µM

Note TGI for the molecule shown: `NCCCCNC1(c2cc3ccccc3s2)CCCCC1`
6.1 µM

Look up and state reported TGI for NC(=O)NCCSC1CCCCC1O (stereo not given)
> 100 µM

Identify the reported TGI for the following entry. CNCCOC(=O)/C=C1/CCC2C(C(O)CC3C(C)(C(=O)OC)CCCC23C)C1C (stereo not given)
0.0657 µM

State its TGI for this molecule: `Clc1ncnc2c1ncn2CCCCCCCCCCCCn1cnc2c(Cl)ncnc21`
25.4 µM

Please give measured TGI of the following entry: CC(=O)OCC1OC(c2nnc(C)o2)=CC(OC(C)=O)C1OC(C)=O (stereo not given)
> 100 µM

Supply TGI value. Item: Cc1cc2c(cc1Br)C1(C)CCC(C)C1(C)O2 (stereo not given)
33.2 µM

Entry source: PubChem BioAssay (NCI)
